For each of the molecules below, state its pIC50.
- targetEntity: cdk2/cyclinE (Homo sapiens)
- experimentalProtocol: Cyclin-Dependent Kinase Assay cdk2/cyclinE
- measurementParameters: cdk2/E IC50
Bear in mind: pIC50 is minus log10 of a mol/L concentration; give just that figure.

Hi! What's the reported pIC50 for CCCCn1c(=O)ccc2cnc(Nc3ccc(I)c(Cl)c3)nc21 on cdk2/cyclinE (Homo sapiens)? 6.46

Hi! What's the reported pIC50 for CCC(C)n1c(=O)ccc2cnc(Nc3cccc(C(F)(F)F)c3)nc21 (stereo not shown) on cdk2/cyclinE (Homo sapiens)? 6.59

Hi! What's the reported pIC50 for CC(C)n1c(=O)ccc2cnc(Nc3ccc(NC(=O)OC(C)(C)C)cc3)nc21 on cdk2/cyclinE (Homo sapiens)? 6.70

Hi! What's the reported pIC50 for Cc1ccc(Nc2ncc3ccc(=O)n(C4CCCC4)c3n2)cc1C on cdk2/cyclinE (Homo sapiens)? 6.54

Hi! What's the reported pIC50 for CCn1c(=O)ccc2cnc(Nc3ccc(O)c(Cl)c3)nc21 on cdk2/cyclinE (Homo sapiens)? 6.74

Hi! What's the reported pIC50 for O=c1ccc2cnc(Nc3ccc(O)cc3F)nc2n1CC1CC1 on cdk2/cyclinE (Homo sapiens)? 6.73

Hi! What's the reported pIC50 for Cc1ccc(Nc2ncc3ccc(=O)n(C(C)C)c3n2)cc1C on cdk2/cyclinE (Homo sapiens)? 6.28

Hi! What's the reported pIC50 for CC(C)n1c(=O)ccc2cnc(Nc3ccc(Cl)c(C(F)(F)F)c3)nc21 on cdk2/cyclinE (Homo sapiens)? 5.41

Hi! What's the reported pIC50 for O=c1ccc2cnc(Nc3ccc4[nH]ncc4c3)nc2n1CC(F)(F)F on cdk2/cyclinE (Homo sapiens)? 5.78

Hi! What's the reported pIC50 for CCCn1c(=O)ccc2cnc(Nc3ccc(C#N)cc3)nc21 on cdk2/cyclinE (Homo sapiens)? 6.52

Hi! What's the reported pIC50 for CCCn1c(=O)ccc2cnc(Nc3ccc([N+](=O)[O-])cc3F)nc21 on cdk2/cyclinE (Homo sapiens)? 6.35

Hi! What's the reported pIC50 for O=c1ccc2cnc(Nc3ccc(OC(F)(F)F)cc3)nc2n1CC1CC1 on cdk2/cyclinE (Homo sapiens)? 5.74

Hi! What's the reported pIC50 for CCC(CC)n1c(=O)ccc2cnc(Nc3ccc4[nH]c5ccccc5c4c3)nc21 on cdk2/cyclinE (Homo sapiens)? 7.02

Hi! What's the reported pIC50 for CCCn1c(=O)ccc2cnc(Nc3cc(C)cc(C)c3)nc21 on cdk2/cyclinE (Homo sapiens)? 6.59

Hi! What's the reported pIC50 for Cc1cc(Nc2ncc3ccc(=O)n(C4CCCC4)c3n2)ccc1Br on cdk2/cyclinE (Homo sapiens)? 6.85

Hi! What's the reported pIC50 for CCC(CC)n1c(=O)ccc2cnc(Nc3ccc4c(c3)NC(=O)CS4)nc21 on cdk2/cyclinE (Homo sapiens)? 7.39

###

- targetEntity: cdk2/cyclinA (Homo sapiens)
- experimentalProtocol: Cyclin-Dependent Kinase Assay cdk2/cyclinA
- measurementParameters: cdk2/A IC50
property: log10(IC50) (log10 of the value in nM)
Each number you see is log10 of IC50, and the unit inside the log is nM.

Returns the measured log10(IC50) for the input molecule. Input: COc1ccc(Nc2ncc3ccc(=O)n(C(C)C)c3n2)cc1F 2.23

Returns the measured log10(IC50) for the input molecule. Input: CCC(C)n1c(=O)ccc2cnc(Nc3cc([N+](=O)[O-])ccc3F)nc21 (stereo not shown) 3.08

Returns the measured log10(IC50) for the input molecule. Input: CC(C)n1c(=O)ccc2cnc(Nc3ccc(O)c(Cl)c3)nc21 2.14

Returns the measured log10(IC50) for the input molecule. Input: CCCn1c(=O)ccc2cnc(Nc3ccc(F)cc3F)nc21 3.50

Returns the measured log10(IC50) for the input molecule. Input: CCC(CC)n1c(=O)ccc2cnc(Nc3ccc(F)c(C(F)(F)F)c3)nc21 2.56

Returns the measured log10(IC50) for the input molecule. Input: CCC(C)n1c(=O)ccc2cnc(Nc3ccc(C)c(Cl)c3)nc21 (stereo not shown) 2.43

Returns the measured log10(IC50) for the input molecule. Input: CCC(C)n1c(=O)ccc2cnc(Nc3ccc4[nH]nnc4c3)nc21 (stereo not shown) 1.61

Returns the measured log10(IC50) for the input molecule. Input: CC(C)(C)OC(=O)Nc1ccc(Nc2ncc3ccc(=O)n(C4CCCC4)c3n2)cc1 2.34

Returns the measured log10(IC50) for the input molecule. Input: CCCCn1c(=O)ccc2cnc(Nc3ccc(O)cc3F)nc21 3.19

Returns the measured log10(IC50) for the input molecule. Input: CCCCn1c(=O)ccc2cnc(Nc3cccc(S(N)(=O)=O)c3)nc21 2.15

Returns the measured log10(IC50) for the input molecule. Input: CCCn1c(=O)ccc2cnc(Nc3ccc(OC)cc3)nc21 2.63

Returns the measured log10(IC50) for the input molecule. Input: Cc1ccc(Nc2ncc3ccc(=O)n(C(C)C)c3n2)cc1I 2.77

Returns the measured log10(IC50) for the input molecule. Input: O=c1ccc2cnc(Nc3ccc(F)c(C(F)(F)F)c3)nc2n1C1CCCC1 2.53

Returns the measured log10(IC50) for the input molecule. Input: CCCCn1c(=O)ccc2cnc(Nc3ccc(N(C)C(C)=O)cc3)nc21 2.79

Returns the measured log10(IC50) for the input molecule. Input: CCC(CC)n1c(=O)ccc2cnc(Nc3ccc(Cl)c(C)c3)nc21 2.53

Returns the measured log10(IC50) for the input molecule. Input: CCCn1c(=O)ccc2cnc(Nc3cc(Cl)cc(Cl)c3)nc21 2.93

###

For each of the compounds below, state its IC50.
- targetEntity: Cdk5/p25 (Homo sapiens, UniProt Q00535)
- experimentalProtocol: Cyclin-Dependent Kinase 5 High Throughput Screening (cdk5-HTS) Assay
- Format: biochemical
- measurementParameters: high throughput screen
- Method: Cyclin-Dependent Kinase 5 High Throughput Screening (cdk5-HTS) Assay Enzyme assays for IC50 determinations were performed in 96-Pierce Reacti-Bind™ White Opaque Glutatione Coated Plates (Cat. No. 15240B). […]
Write the value in nM as a bare number.

Returns the measured IC50 for the input compound. Input: CCCCn1c(=O)ccc2cnc(Nc3cc(Cl)cc(Cl)c3)nc21 58

Returns the measured IC50 for the input compound. Input: CCCCn1c(=O)ccc2cnc(Nc3ccc(C(N)=O)cc3)nc21 234

Returns the measured IC50 for the input compound. Input: Cc1ccc(Nc2ncc3ccc(=O)n(C4CCCC4)c3n2)cc1C 59

Returns the measured IC50 for the input compound. Input: O=c1ccc2cnc(Nc3ccc(C(F)(F)F)cc3)nc2n1C1CCCC1 66

Returns the measured IC50 for the input compound. Input: CC(C)n1c(=O)ccc2cnc(Nc3ccc(OC(F)(F)F)cc3)nc21 63

Returns the measured IC50 for the input compound. Input: CCCCn1c(=O)ccc2cnc(Nc3ccc(F)c(C)c3)nc21 110

Returns the measured IC50 for the input compound. Input: CCCCn1c(=O)ccc2cnc(Nc3ccccc3)nc21 87.5

Returns the measured IC50 for the input compound. Input: CCC(CC)n1c(=O)ccc2cnc(Nc3ccc(C)c(F)c3)nc21 63.2

###

- targetEntity: cdc2/cyclinB (Homo sapiens, UniProt P06493)
- Sequence (P06493 whole entry): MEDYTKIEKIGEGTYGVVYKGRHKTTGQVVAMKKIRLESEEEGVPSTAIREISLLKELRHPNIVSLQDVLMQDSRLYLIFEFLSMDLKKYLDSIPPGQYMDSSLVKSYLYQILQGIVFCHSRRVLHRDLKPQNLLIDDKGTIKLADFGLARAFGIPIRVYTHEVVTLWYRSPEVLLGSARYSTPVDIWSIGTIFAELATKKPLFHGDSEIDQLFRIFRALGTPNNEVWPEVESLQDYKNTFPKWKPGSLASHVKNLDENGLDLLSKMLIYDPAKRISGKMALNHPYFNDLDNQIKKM
- Sequence (P14635 whole entry, further chain): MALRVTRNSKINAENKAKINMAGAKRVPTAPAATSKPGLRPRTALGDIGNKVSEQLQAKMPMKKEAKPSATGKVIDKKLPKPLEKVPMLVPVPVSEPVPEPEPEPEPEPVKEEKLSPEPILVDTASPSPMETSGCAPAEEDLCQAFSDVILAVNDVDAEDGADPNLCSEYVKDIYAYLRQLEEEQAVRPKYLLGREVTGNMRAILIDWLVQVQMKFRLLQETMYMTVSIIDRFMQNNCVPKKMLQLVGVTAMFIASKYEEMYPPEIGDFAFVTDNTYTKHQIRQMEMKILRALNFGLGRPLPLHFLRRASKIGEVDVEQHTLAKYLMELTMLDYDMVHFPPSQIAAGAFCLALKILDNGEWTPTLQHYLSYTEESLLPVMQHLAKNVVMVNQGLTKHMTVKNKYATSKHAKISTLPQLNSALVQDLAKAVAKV
- experimentalProtocol: Cyclin-Dependent Kinase Assay cdc2/cyclinB
For each of the molecules below, state its IC50.
Write the value in nM as a bare number.

Returns the measured IC50 for the input molecule. Input: CCC(C)n1c(=O)ccc2cnc(Nc3cccc(S(N)(=O)=O)c3)nc21 (stereo not shown) [Example 469] 90

Returns the measured IC50 for the input molecule. Input: CCCn1c(=O)ccc2cnc(Nc3cccc(I)c3)nc21 [Example 316] 92.4

Returns the measured IC50 for the input molecule. Input: CCC(C)n1c(=O)ccc2cnc(Nc3ccc(OC)c(F)c3)nc21 (stereo not shown) [Example 462] 88

Returns the measured IC50 for the input molecule. Input: O=c1ccc2cnc(Nc3ccc(N4CCC(O)CC4)cc3)nc2n1C1CCCCC1 [Example 215] 112

Returns the measured IC50 for the input molecule. Input: CCCCn1c(=O)ccc2cnc(Nc3cccc(I)c3)nc21 [Example 375] 107

Returns the measured IC50 for the input molecule. Input: CCCCn1c(=O)ccc2cnc(Nc3cc(Cl)c(O)c(Cl)c3)nc21 [Example 384] 115

Returns the measured IC50 for the input molecule. Input: CCC(CC)n1c(=O)ccc2cnc(Nc3cc(C)c(O)c(C)c3)nc21 [Example 523] 93

###

- targetEntity: cdc2/cyclinB (Homo sapiens, UniProt P06493)
- experimentalProtocol: Cyclin-Dependent Kinase Assay cdc2/cyclinB
property: pIC50
Bear in mind: pIC50 is minus log10 of a mol/L concentration; give just that figure.

Returns the measured pIC50 for the input molecule. Input: CCCCn1c(=O)ccc2cnc(Nc3ccc4[nH]ccc4c3)nc21 [Example 378] 6.82

Returns the measured pIC50 for the input molecule. Input: Cc1cc(C)cc(Nc2ncc3ccc(=O)n(C4CCCC4)c3n2)c1 [Example 544] 7.07

Returns the measured pIC50 for the input molecule. Input: Cc1ccc(Nc2ncc3ccc(=O)n(C(C)C)c3n2)cc1I [Example 427] 6.80

Returns the measured pIC50 for the input molecule. Input: CCC(C)n1c(=O)ccc2cnc(Nc3ccc(C)c(I)c3)nc21 (stereo not shown) [Example 465] 7.12

Returns the measured pIC50 for the input molecule. Input: CCCCn1c(=O)ccc2cnc(Nc3ccc(OC)cc3)nc21 [Example 385] 6.81

Returns the measured pIC50 for the input molecule. Input: CCC(CC)n1c(=O)ccc2cnc(Nc3ccc(F)c(C(F)(F)F)c3)nc21 [Example 502] 7.00

Returns the measured pIC50 for the input molecule. Input: O=c1ccc2cnc(Nc3ccc(O)c(Cl)c3)nc2n1CC1CC1 [Example 567] 7.12
